test: Mouse plasma ciclopirox pharmacokinetics after 30 mg/kg oral dose; type: in vivo; details: mouse, in vivo, po, 30 mg/kg
measure: half-life (h)
Numbers only; they are read as h.

Request: Which value of half-life has been reported for Cc1cc(C2CCCCC2)n(O)c(=O)c1 [Ciclopirox Olamine, reference compound] in the records?
Result: 1.26

----------
experiment: Mouse plasma ciclopirox pharmacokinetics after 10 mg/kg IV bolus; format: in vivo; details: in vivo, iv, 10 mg/kg, Plasma Ciclopirox Concentrations
measure: concentration at 5 min (ng/mL)
Numbers only; they are read as ng/mL.

Request: Which value of concentration at 5 min has been reported for Cc1cc(C2CCCCC2)n(O)c(=O)c1 [Ciclopirox Olamine, reference compound] in the records?
Result: 6090

----------
experiment: Mouse plasma ciclopirox pharmacokinetics after 30 mg/kg oral dose; type: in vivo; conditions: mouse, in vivo, po, 30 mg/kg, Plasma Ciclopirox Concentrations, Mean
measure: concentration at 90 min (ng/mL)
Numbers only; they are read as ng/mL.

Request: Which value of concentration at 90 min has been reported for Cc1cc(C2CCCCC2)n(O)c(=O)c1 [Ciclopirox Olamine, reference compound] in the records?
Result: 260

----------
test: Mouse plasma ciclopirox pharmacokinetics after 30 mg/kg oral dose; type: in vivo; conditions: mouse, in vivo, po, 30 mg/kg
measure: Cmax
Give your result as the value with the unit written after it.

Request: Which value of Cmax has been reported for Cc1cc(C2CCCCC2)n(O)c(=O)c1 [Ciclopirox Olamine, reference compound] in the records?
Result: 548 ng/mL
